Provenance of the data: PubChem BioAssay (NCATS)

- System: PC49
- Protocol: qHTS profiling for inhibitors of Plasmodium falciparum proliferation (AID 504749); also: nearly all actives have a fitted effect of over 60% in size
- Condition Parameters: P. falciparum in erythrocytes, SYBR Green DNA, 72 h; series mostly up to 28.7 µM
Inconclusive results are not listed. The source made the active and inactive calls. Calls follow the shape of the dose curve; as a rule, active = well fitted inhibition curve with a large enough effect; inconclusive = small, poorly fitted or top-dose-only effect; inactive = flat fitted curve, though single readings scatter.
Your response should consist of one outcome taken from true (1) (active), false (0) (inactive)

Some solved entries appear below for comparison.
                                   compound  measured_on  assigned_category
0  COc1cc(NCc2ccc3nc(N)nc(N)c3c2C)cc(OC)c1OC         PC49           true (1)
1                 Cc1ncc([N+](=O)[O-])n1CCO         PC49          false (0)
2                    CC1=CC(=O)c2ccccc2C1=O         PC49          false (0)
3                            NC(=O)c1cccnc1         PC49          false (0)
4                      O=c1cc(O)c(Cl)c[nH]1         PC49          false (0)
5  CC[C@H](C)C(=O)O[C@H]1C[C@@H](C)C=C2C=C[C@H](C)[C@H](CC[C@@H]3C[C@@H](O)CC(=O)O3)[C@H]21         PC49          false (0)
6  CN1CCN(c2c(F)cc3c(=O)c(C(=O)O)cn4c3c2OCN4C)CC1         PC49          false (0)
7                             O=S(=O)(O)CCS         PC49          false (0)

(Q) In this assay, the call recorded for `CC(C)(C)C(=O)OCOP(=O)(COCCn1cnc2c(N)ncnc21)OCOC(=O)C(C)(C)C` was what?
(A) false (0)

(Q) In this assay, the call recorded for `O=C(O)c1cn(C2CC2)c2cc(N3CCNCC3)c(F)cc2c1=O` was what?
(A) false (0)

(Q) In this assay, the call recorded for `Cn1nnc2c(C(N)=O)ncn2c1=O` was what?
(A) false (0)

----------
- Measured On: Cytochrome P450 2C9 (Homo sapiens) (UniProt P11712)
- Sequence (P11712 whole entry, looked up): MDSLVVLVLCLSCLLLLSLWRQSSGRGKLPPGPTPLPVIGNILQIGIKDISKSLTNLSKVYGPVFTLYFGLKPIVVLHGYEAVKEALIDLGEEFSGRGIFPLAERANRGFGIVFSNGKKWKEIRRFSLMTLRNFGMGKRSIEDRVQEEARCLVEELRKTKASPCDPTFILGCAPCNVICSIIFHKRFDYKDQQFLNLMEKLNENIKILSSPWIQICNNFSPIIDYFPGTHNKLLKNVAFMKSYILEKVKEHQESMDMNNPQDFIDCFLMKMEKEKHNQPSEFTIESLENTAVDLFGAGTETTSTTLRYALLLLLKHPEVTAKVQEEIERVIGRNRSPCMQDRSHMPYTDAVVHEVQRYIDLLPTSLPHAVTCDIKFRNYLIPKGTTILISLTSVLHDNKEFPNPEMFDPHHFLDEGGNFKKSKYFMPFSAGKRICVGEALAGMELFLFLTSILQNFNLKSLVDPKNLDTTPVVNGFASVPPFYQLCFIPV
- Protocol: Cytochrome P450 family 2 subfamily C member 9 (CYP2C9) small molecule antagonists: luciferase biochemical (cell-free) qHTS assay (AID 1645842); also: nearly all actives have a fitted effect of over 55% in size
- Condition Parameters: P450-Glo CYP2C9 enzyme assay, luciferin luminescence; series mostly up to 57.4 µM
Records with an inconclusive call do not appear. The source made the active and inactive calls. The call rests on the fitted dose curve; in most records, active means well fitted inhibition curve with a large enough effect in the repeat runs; inconclusive means weak or mixed curves; inactive means no such curve, though single readings can be large or run the other way.
Your response should consist of one outcome taken from label 1 for active, label 0 for inactive

Some solved entries appear below for comparison.
                                   molecule  assigned_category
0  CNS(=O)(=O)CCc1ccc2[nH]cc(C3CCN(C)CC3)c2c1            label 0
1            CCCOc1ccc(C(=O)OCCN(CC)CC)cc1N            label 0
2  CCOc1cc(N)c(Cl)cc1C(=O)NCC1CN(Cc2ccc(F)cc2)CCO1 (stereo unspecified)            label 0
3         CNCC[C@H](Oc1cccc2ccccc12)c1cccs1            label 0
4  CN1CCN(c2c(F)cc3c(=O)c(C(=O)O)cn4c3c2OCN4C)CC1            label 0
5          O=S(=O)(c1cccc2cnccc12)N1CCCNCC1            label 0
6  O=C(O)CSCC(=O)NC1CCSC1=O (stereo unspecified)            label 0
7                  Nc1nc(=S)c2[nH]cnc2[nH]1            label 1

(Q) In this assay, the call recorded for `CO[C@@]12[C@H](COC(N)=O)C3=C(C(=O)C(C)=C(N)C3=O)N1C[C@@H]1N[C@@H]12` was what?
(A) label 0

(Q) In this assay, the call recorded for `Cc1nnc(C(=O)NC(C)(C)c2nc(C(=O)NCc3ccc(F)cc3)c(O)c(=O)n2C)o1` was what?
(A) label 0

(Q) In this assay, the call recorded for `COc1ccc(C(=O)CC(=O)c2ccc(C(C)(C)C)cc2)cc1` was what?
(A) label 0

(Q) In this assay, the call recorded for `CNS(=O)(=O)Cc1ccc2[nH]cc(CCN(C)C)c2c1` was what?
(A) label 0

(Q) In this assay, the call recorded for `CC(C)C[C@H](NC(=O)[C@H](CCc1ccccc1)NC(=O)CN1CCOCC1)C(=O)N[C@@H](Cc1ccccc1)C(=O)N[C@@H](CC(C)C)C(=O)[C@@]1(C)CO1` was what?
(A) label 0

(Q) In this assay, the call recorded for `CC(C)(C#N)c1cc(Cn2cncn2)cc(C(C)(C)C#N)c1` was what?
(A) label 1

(Q) In this assay, the call recorded for `CS(=O)(=O)c1ccc([C@@H](O)[C@@H](CO)NC(=O)C(Cl)Cl)cc1` was what?
(A) label 0

(Q) In this assay, the call recorded for Cc1oc(=O)oc1CN1CCN(c2cc3c(cc2F)c(=O)c(C(=O)O)c2n3C(C)S2)CC1 (stereo unspecified) was what?
(A) label 0

(Q) In this assay, the call recorded for `O=NN(CCCl)C(=O)NC1CCCCC1` was what?
(A) label 0
